# Test system: HEK 293 cells
# test: XTT cell viability cytotoxicity assay
# assay_setup: n = 3, 24 h treatment
MIC, HEK 293 (cytotoxicity) values, listed per item

For orientation, consider the following solved cases.
>>> print(df.to_string())
                                   molecule   obs_value
0  COc1nc2ccc(Br)cc2cc1[C@@H](c1ccccc1)[C@@](O)(CCN(C)C)c1cccc2ccccc12 [Bedaquiline, bedaquiline, reference compound]  > 32 µg/mL
1  Fc1ccc(-c2cnc(SCc3ccccc3)c(CNCCC3CCN(C4CCCC4)CC3)c2)cc1    <2 µg/mL
2  Cc1ccc(-c2cnc(SCc3ccccc3)c(CNCCC3CCN(C4CCCC4)CC3)c2)cc1    16 µg/mL
3  CN(C)c1ccc(-c2cnc(SCc3ccccc3)c(CNCCC3CCN(C4CCCC4)CC3)c2)cc1     4 µg/mL
4  Cc1ccc(-c2cnc(SCc3ccccc3)c(CNCCN3CCN(C)CC3)c2)cc1    16 µg/mL
5  CN1CCN(CCNCc2cc(-c3ccc(F)cc3)cnc2SCc2ccccc2)CC1     4 µg/mL
6  COc1ccc(-c2cnc(SCc3ccccc3)c(CNCCC3CCN(C4CCCC4)CC3)c2)cc1F     4 µg/mL
7  CCN1CCC(CCNCc2cc(-c3ccc(F)cc3)cnc2SCc2ccccc2)CC1     8 µg/mL
8  CCN1CCC(CCNCc2cc(-c3ccccc3)cnc2SCc2ccccc2)CC1     8 µg/mL
9  c1ccc(CSc2ncc(-c3ccccc3)cc2CNCCC2CCN(C3CCCC3)CC2)cc1    16 µg/mL

Task: Give the reported MIC, HEK 293 (cytotoxicity) for COc1ccc(-c2cnc(SCc3ccccc3)c(CNCCN3CCN(C)CC3)c2)cc1F (system: HEK 293 cells).
Output: 4 µg/mL

Task: What about CCN1CCC(CCNCc2cc(Br)cnc2SCc2ccccc2)CC1 ?
Output: 32 µg/mL

Task: What about Cc1ccc(-c2cnc(SCc3ccccc3)c(CNCc3ccc(CN4CCCC4)cc3)c2)cc1 ?
Output: 16 µg/mL

Task: What about CN1CCN(CCNCc2cc(-c3ccc(F)cc3F)cnc2SCc2ccccc2)CC1 ?
Output: 4 µg/mL

Task: What about COc1ccc(-c2cnc(SCc3ccccc3)c(CNCc3ccc(CN4CCCC4)cc3)c2)cc1 ?
Output: 16 µg/mL

* * *

MIC values, listed per item
# System: AB ATCC 17978
# test: Broth microdilution antimicrobial susceptibility assay, susceptible isolate
# assay_setup: Acinetobacter baumannii, ATCC17978, read-out: MIC, AB ATCC 17978
Expressed in µg/mL, but write only the number.

For orientation, consider the following solved cases.
                                   compound  endpoint  obs_value
0  COc1ccc(-c2cnc(SCc3ccccc3)c(CNCCN3CCN(C)CC3)c2)cc1F [WSA 275]       MIC         32
1  COc1ccc(-c2cnc(SCc3ccccc3)c(CNCc3ccc(CN4CCCC4)cc3)c2)cc1 [WSA 296]       MIC         32
2  CN1CCN(CCNCc2cc(-c3ccc(F)cc3)cnc2SCc2ccccc2)CC1 [WSA 273]       MIC         32

We now examine a further compound.
Task: Give the measured MIC of Fc1ccc(-c2cnc(SCc3ccccc3)c(CNCc3ccc(CN4CCCC4)cc3)c2)cc1 [WSA 298] .
Output: 16

* * *

MIC values, listed per item
# System: AB ATCC 17978
# test: Broth microdilution antimicrobial susceptibility assay, susceptible isolate
# assay_setup: Acinetobacter baumannii, ATCC17978, read-out: MIC, AB ATCC 17978
Expressed in µg/mL, but write only the number.

                                   molecule  unit_info  obs_value
0  CCN1CCC(CCNCc2cc(-c3ccc(OC)c(F)c3)cnc2SCc2ccccc2)CC1 [WSA 306]      µg/mL         32
1  CN1CCN(CCNCc2cc(-c3ccc(N(C)C)cc3)cnc2SCc2ccccc2)CC1 [WSA 276]      µg/mL         16

Task: Give the measured MIC of Fc1ccc(-c2cnc(SCc3ccccc3)c(CNCCC3CCN(C4CCCC4)CC3)c2)cc1 [WSA 291] .
Output: 32

* * *

# subject_of_test: A. baumannii ATP synthase (Acinetobacter baumannii, UniProt A3M139)
# Construct: endogenous electron transport chains of inverted inner membrane vesicles were energized with NADH; endogenous in cells; host or cells: inverted inner membrane vesicles prepared from A. baumannii ATCC 17978 cells
# Sequence (A3M139 whole entry): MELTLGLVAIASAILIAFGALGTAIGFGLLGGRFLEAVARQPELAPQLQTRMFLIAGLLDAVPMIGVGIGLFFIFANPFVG
# test: AB ATP synthase inhibition: NADH-driven ATP synthesis in inverted inner membrane vesicles, luciferin/luciferase readout
# Assay type: biochemical
# assay_setup: inverted inner membrane vesicles, 0.0625-64 µg/mL, n≥3, Table S1; read-out: AB ATP Synthase Inhibition IC50 (converted)
# Protocol: Once synthesized, the pyridine compounds were tested for their ability to inhibit ATP synthase activity using our previously reported luciferin/luciferase assay. […] ATP was measured via luminescence from the luciferase-catalyzed oxidation of D-luciferin. Luminescence activities across increasing inhibitor concentrations were corrected for gradient independent background sources of ATP by comparison with a control containing the protonophore CCCP (carbonyl cyanide 3-chlorophenylhydrazone). […]
log10(IC50) values, listed per item
In plain terms, each number is the log10 of measured IC50 in nM.

For orientation, consider the following solved cases.
                                smiles_code  obs_value
0  COc1ccc(-c2cnc(SCc3ccccc3)c(CNCCC3CCN(C4CCCC4)CC3)c2)cc1F       2.55
1  Fc1ccc(-c2cnc(SCc3ccccc3)c(CNCCC3CCN(C4CCCC4)CC3)c2)c(F)c1       3.00
2  CCN1CCC(CCNCc2cc(-c3ccc(OC)c(F)c3)cnc2SCc2ccccc2)CC1       3.03
3    CCN1CCC(CCNCc2cc(Br)cnc2SCc2ccccc2)CC1       3.65
4  CCN1CCC(CCNCc2cc(-c3ccc(C)cc3)cnc2SCc2ccccc2)CC1       2.83
5  CN1CCN(CCNCc2cc(-c3ccc(F)cc3F)cnc2SCc2ccccc2)CC1       3.23
6  CCN1CCC(CCNCc2cc(-c3ccccc3)cnc2SCc2ccccc2)CC1       3.14
7  Cc1ccc(-c2cnc(SCc3ccccc3)c(CNCc3ccc(CN4CCCC4)cc3)c2)cc1       3.04

Task: Give the measured log10(IC50) of Brc1cnc(SCc2ccccc2)c(CNCc2ccc(CN3CCCC3)cc2)c1 .
Output: 3.57

Task: What about Fc1ccc(-c2cnc(SCc3ccccc3)c(CNCc3ccc(CN4CCCC4)cc3)c2)c(F)c1 ?
Output: 3.33

Task: What about CCN1CCC(CCNCc2cccnc2SCc2ccccc2)CC1 ?
Output: 4.92

* * *

# subject_of_test: A. baumannii ATP synthase (Acinetobacter baumannii, UniProt A3M139)
# Construct: endogenous electron transport chains of inverted inner membrane vesicles were energized with NADH; endogenous in cells; host or cells: inverted inner membrane vesicles prepared from A. baumannii ATCC 17978 cells
# test: AB ATP synthase inhibition: NADH-driven ATP synthesis in inverted inner membrane vesicles, luciferin/luciferase readout
# Type: biochemical
# assay_setup: fit of ATP synthesis dose response curve
endpoint: Hill coefficient (Hill slope)
Please give the numeric answer without any surrounding text.

For orientation, consider the following solved cases.
>>> df
                                smiles_code  obs_value
0  CN1CCN(CCNCc2cc(-c3ccccc3)cnc2SCc2ccccc2)CC1       -0.7
1  Fc1ccc(-c2cnc(SCc3ccccc3)c(CNCCC3CCN(C4CCCC4)CC3)c2)cc1       -1.1
2  CCN1CCC(CCNCc2cc(-c3ccc(OC)c(F)c3)cnc2SCc2ccccc2)CC1       -0.9
3  COc1ccc(-c2cnc(SCc3ccccc3)c(CNCCN3CCN(C)CC3)c2)cc1       -0.8
4         CN1CCN(CCNCc2cccnc2SCc2ccccc2)CC1       -0.5

We now examine a further compound.
Task: Give the measured Hill coefficient (Hill slope) of c1ccc(CSc2ncccc2CNCCC2CCN(C3CCCC3)CC2)cc1 .
Output: -0.7

* * *

# System: HEK 293 cells
# test: XTT cell viability cytotoxicity assay
# assay_setup: n = 3, 24 h treatment
MIC, HEK 293 (cytotoxicity) values, listed per item
Expressed in µg/mL, but write only the number.

Task: Give the measured MIC, HEK 293 (cytotoxicity) of CCN1CCC(CCNCc2cc(-c3ccc(OC)cc3)cnc2SCc2ccccc2)CC1 .
Output: 4

Task: What about COc1ccc(-c2cnc(SCc3ccccc3)c(CNCCN3CCN(C)CC3)c2)cc1 ?
Output: 16

Task: What about Fc1ccc(-c2cnc(SCc3ccccc3)c(CNCCC3CCN(C4CCCC4)CC3)c2)c(F)c1 ?
Output: 4

* * *

# subject_of_test: A. baumannii ATP synthase (Acinetobacter baumannii)
# Construct: endogenous electron transport chains of inverted inner membrane vesicles were energized with NADH; endogenous in cells; host or cells: inverted inner membrane vesicles prepared from A. baumannii ATCC 17978 cells
# test: AB ATP synthase inhibition: NADH-driven ATP synthesis in inverted inner membrane vesicles, luciferin/luciferase readout
# Format: biochemical
# assay_setup: inverted inner membrane vesicles, 0.0625-64 µg/mL, n≥3, Table S1; read-out: AB ATP Synthase Inhibition IC50 (converted)
IC50 values, listed per item
Answer with the figure and its unit, nothing else.

In [3]: df
Out[3]:
                                smiles_code  endpoint  obs_value
0  COc1ccc(-c2cnc(SCc3ccccc3)c(CNCCN3CCN(C)CC3)c2)cc1F      IC50     499 nM
1  CCN1CCC(CCNCc2cc(-c3ccc(F)cc3)cnc2SCc2ccccc2)CC1      IC50    1160 nM

We now examine a further compound.
Task: Give the reported IC50 for CN1CCN(CCNCc2cc(-c3ccccc3)cnc2SCc2ccccc2)CC1 (system: A. baumannii ATP synthase (Acinetobacter baumannii)).
Output: 2170 nM
